Reported pIC50 values for a set of compounds
biological target: cGAS (Homo sapiens, UniProt Q8N884); test: Human cGAS enzyme assay (hcGAS IC50, in vitro), cGAMP formation by RapidFire MS; type: biochemical; design: HumancGAS (amino acid 1-522) with an N-terminal 6×-His-tag and SUMO-tag; 6xHis (N); SUMO (N); made in house; host or cells: E. coli BL21(DE3) pLysS; details: Table 1; 45 bp dsDNA-activated enzyme
Sequence (Q8N884 whole entry): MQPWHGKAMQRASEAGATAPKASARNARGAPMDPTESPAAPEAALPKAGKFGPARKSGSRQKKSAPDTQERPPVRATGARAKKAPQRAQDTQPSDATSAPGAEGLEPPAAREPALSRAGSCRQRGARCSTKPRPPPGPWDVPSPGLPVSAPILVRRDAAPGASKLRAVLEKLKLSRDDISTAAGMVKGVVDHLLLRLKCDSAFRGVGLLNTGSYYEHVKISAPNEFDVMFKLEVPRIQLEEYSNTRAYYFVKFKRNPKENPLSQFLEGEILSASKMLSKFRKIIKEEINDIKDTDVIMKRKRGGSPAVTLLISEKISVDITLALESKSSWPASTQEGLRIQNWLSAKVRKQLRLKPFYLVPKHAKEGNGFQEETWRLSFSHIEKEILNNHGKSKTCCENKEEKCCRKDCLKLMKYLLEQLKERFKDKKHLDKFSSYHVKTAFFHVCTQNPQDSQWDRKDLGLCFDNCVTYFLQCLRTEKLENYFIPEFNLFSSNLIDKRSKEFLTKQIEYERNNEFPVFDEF
pIC50: −log10 of the molar value.

[
  {
    "COMPOUND": "C[C@H]1CN2CC[C@@H]1n1c(nc3ccccc31)O[C@H]1C[C@@H](C(=O)O)N(C1)c1nc(nc3c1oc1ccccc13)CCCCCCC2=O (racemic) [Example 1.24]",
    "pIC50": 7.74
  },
  {
    "COMPOUND": "C[C@H]1CN2CC[C@@H]1n1c(nc3cc(Cl)ccc31)O[C@H]1C[C@@H](C(=O)O)N(C1)c1nc(nc3c1oc1ccccc13)C(F)(F)OCCCCC2=O [Example 6.01]",
    "pIC50": 8.46
  },
  {
    "COMPOUND": "C[C@H]1CN2CC[C@@H]1n1c(nc3ccc(Cl)cc31)O[C@H]1C[C@@H](C(=O)O)N(C1)c1nc(nc3c1oc1ccccc13)COCCCCC2=O [Example 1.10]",
    "pIC50": 8.30
  },
  {
    "COMPOUND": "C[C@H]1CN2CC[C@@H]1n1c(nc3ccccc31)O[C@H]1C[C@@H](C(=O)O)N(C1)c1nc(nc3c1oc1ccccc13)C(F)(F)COCCCC2=O [Example 4.01]",
    "pIC50": 8.77
  },
  {
    "COMPOUND": "C[C@@H]1CN2CC[C@H]1n1c(nc3cc(Cl)ccc31)O[C@H]1C[C@@H](C(=O)O)N(C1)c1nc(nc3c1oc1ccccc13)CCOCCCC2=O [Example 1.01]",
    "pIC50": 7.85
  },
  {
    "COMPOUND": "C[C@H]1CN2CC[C@@H]1n1c(nc3cc(Cl)ccc31)O[C@H]1C[C@@H](C(=O)O)N(C1)c1nc(nc3c1oc1cc(F)ccc13)CCCCOCC2=O [Example 1.09]",
    "pIC50": 8.41
  }
]
